This collection of values is drawn from paper PMC3870587.

# Assay System: human MTAP (apo) (Homo sapiens, UniProt Q13126)
# Sequence (Q13126 whole entry): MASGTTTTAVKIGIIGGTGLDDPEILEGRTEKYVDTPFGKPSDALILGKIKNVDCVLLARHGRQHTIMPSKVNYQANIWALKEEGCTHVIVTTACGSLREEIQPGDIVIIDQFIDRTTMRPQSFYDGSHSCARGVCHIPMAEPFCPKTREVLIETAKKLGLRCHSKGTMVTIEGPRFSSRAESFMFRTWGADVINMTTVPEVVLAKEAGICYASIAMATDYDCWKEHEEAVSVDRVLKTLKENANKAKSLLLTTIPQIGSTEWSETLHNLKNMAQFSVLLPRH
Observed Property: Kd (µM)
# number only, unit µM dropped from output

[ask] Requested read-out: Kd. Entry: O=P(O)(O)O [phosphate, potassium phosphate]
[reply] 17
